settings: 293.15 K; 15000 kPa; Liquid; Vibrating tube method
parameter_measured: mass density (kg/m3)
Express it in kg/m3; write the number only.

For orientation, consider the following solved cases.
CCCCCO
825.37
C=C(C)C(=O)OCCN(C)C [2-(dimethylamino)ethyl methylpropenoate]
943.83
CCO
801.44
CCCO
814.54

Query: mass density; subject: "CO" 804.64

Query: mass density; subject: "CCCCO" 819.83

* * *

settings: 313.15 K; 30000 kPa; Liquid; Vibrating tube method
Numbers after ± are expanded uncertainties.
Recorded measurements of mass density, one per entry

CCCCCO
821.41 ± 0.75 kg/m3
CCCO
810.15 ± 0.6 kg/m3

Query: mass density; subject: "CO" 799.69 ± 0.59 kg/m3

Query: mass density; subject: "CCO" 797.2 ± 0.59 kg/m3

Query: mass density; subject: "CCCCO" 815.73 ± 0.59 kg/m3

Query: mass density; subject: C=C(C)C(=O)OCCN(C)C [2-(dimethylamino)ethyl methylpropenoate] 937.2 ± 0.57 kg/m3

* * *

Recorded measurements of mass density, one per entry
settings: 293.15 K; 20000 kPa; Liquid; Vibrating tube method
Express it in kg/m3; write the number only.

For orientation, consider the following solved cases.
CCO
805.18
C=C(C)C(=O)OCCN(C)C [2-(dimethylamino)ethyl methylpropenoate]
947.11

Query: mass density; subject: "CCCCCO" 828.41

Query: mass density; subject: "CCCCO" 822.97

Query: mass density; subject: "CCCO" 817.87

Query: mass density; subject: "CO" 808.67

* * *

details: 293.15 K; 100 kPa; Liquid; Vibrating tube method
parameter_measured: mass density (kg/m3)
Express it in kg/m3; write the number only.

For orientation, consider the following solved cases.
CCCCO [butan-1-ol]
809.28
CO [methanol]
791.15
C=C(C)C(=O)OCCN(C)C [2-(dimethylamino)ethyl methylpropenoate]
933.13

Query: mass density; subject: CCCCCO [pentan-1-ol] 815.25

Query: mass density; subject: CCO [ethanol] 788.94

Query: mass density; subject: CCCO [propan-1-ol] 803.17

* * *

settings: 303.15 K; 100 kPa; Liquid; Vibrating tube method
parameter_measured: mass density (kg/m3)
Express it in kg/m3; write the number only.

C=C(C)C(=O)OCCN(C)C [2-(dimethylamino)ethyl methylpropenoate]
923.03
CCCCO
801.9
CO
781.84
CCCCCO
808.05
CCCO
795.52

Query: mass density; subject: "CCO" 780.83

* * *

conditions: 303.15 K; 35000 kPa; Liquid; Vibrating tube method
Recorded measurements of mass density, one per entry
Express it in kg/m3; write the number only.

For orientation, consider the following solved cases.
CCO
808.06
CCCCO
825.48

Query: mass density; subject: C=C(C)C(=O)OCCN(C)C [2-(dimethylamino)ethyl methylpropenoate] 948.19

Query: mass density; subject: "CCCCCO" 830.55

Query: mass density; subject: "CO" 811.37

Query: mass density; subject: "CCCO" 820.48

* * *

settings: 303.15 K; 15000 kPa; Liquid; Vibrating tube method
parameter_measured: mass density (kg/m3)
Express it in kg/m3; write the number only.

For orientation, consider the following solved cases.
C=C(C)C(=O)OCCN(C)C [2-(dimethylamino)ethyl methylpropenoate]
934.24
CCCO
807.49
CCCCO
813.26

Query: mass density; subject: "CCCCCO" 818.82

Query: mass density; subject: "CO" 796.01

Query: mass density; subject: "CCO" 793.92

* * *

Recorded measurements of mass density, one per entry
conditions: 303.15 K; 25000 kPa; Liquid; Vibrating tube method
Express it in kg/m3; write the number only.

CCCCO [butan-1-ol]
819.61
CCO [ethanol]
801.28
C=C(C)C(=O)OCCN(C)C [2-(dimethylamino)ethyl methylpropenoate]
941.28
CCCO [propan-1-ol]
814.23

Query: mass density; subject: CCCCCO [pentan-1-ol] 824.88

Query: mass density; subject: CO [methanol] 804.05

* * *

Recorded measurements of mass density, one per entry
details: 313.15 K; 10000 kPa; Liquid; Vibrating tube method
Express it in kg/m3; write the number only.

For orientation, consider the following solved cases.
CCCO
795.67
CCCCCO
808.28

Query: mass density; subject: "CCCCO" 802.22

Query: mass density; subject: "CO" 782.37

Query: mass density; subject: "CCO" 781.35

Query: mass density; subject: C=C(C)C(=O)OCCN(C)C [2-(dimethylamino)ethyl methylpropenoate] 921.97

* * *

Recorded measurements of mass density, one per entry
details: 313.15 K; 35000 kPa; Liquid; Vibrating tube method
Express it in kg/m3; write the number only.

CO [methanol]
803.73
C=C(C)C(=O)OCCN(C)C [2-(dimethylamino)ethyl methylpropenoate]
940.87
CCCCO [butan-1-ol]
818.97
CCCO [propan-1-ol]
813.5
CCCCCO [pentan-1-ol]
824.56

Pending compound:
Query: mass density; subject: CCO [ethanol] 800.84

* * *

details: 313.15 K; 15000 kPa; Liquid; Vibrating tube method
Recorded measurements of mass density, one per entry
Express it in kg/m3; write the number only.

For orientation, consider the following solved cases.
CCCCCO
811.75
C=C(C)C(=O)OCCN(C)C [2-(dimethylamino)ethyl methylpropenoate]
925.87
CCCO
799.52
CCCCO
805.8
CO
786.99

Pending molecule:
Query: mass density; subject: "CCO" 785.59

* * *

details: 313.15 K; 100 kPa; Liquid; Vibrating tube method
parameter_measured: mass density (kg/m3)
Express it in kg/m3; write the number only.

Query: mass density; subject: CO [methanol] 772.35

Query: mass density; subject: CCCCCO [pentan-1-ol] 800.67

Query: mass density; subject: CCCO [propan-1-ol] 787.3

Query: mass density; subject: C=C(C)C(=O)OCCN(C)C [2-(dimethylamino)ethyl methylpropenoate] 914.01

Query: mass density; subject: CCO [ethanol] 772.04

Query: mass density; subject: CCCCO [butan-1-ol] 794.32

* * *

details: 313.15 K; 20000 kPa; Liquid; Vibrating tube method
Recorded measurements of mass density, one per entry
Express it in kg/m3; write the number only.

Query: mass density; subject: CCCO [propan-1-ol] 803.19

Query: mass density; subject: CCO [ethanol] 789.62

Query: mass density; subject: CCCCO [butan-1-ol] 809.2

* * *

conditions: 313.15 K; 5000 kPa; Liquid; Vibrating tube method
parameter_measured: mass density (kg/m3)
Express it in kg/m3; write the number only.

CCCCO [butan-1-ol]
798.42
CCCCCO [pentan-1-ol]
804.61
CCO [ethanol]
776.85
CO [methanol]
777.48
C=C(C)C(=O)OCCN(C)C [2-(dimethylamino)ethyl methylpropenoate]
917.99

Query: mass density; subject: CCCO [propan-1-ol] 791.61

* * *

Recorded measurements of mass density, one per entry
settings: 303.15 K; 5000 kPa; Liquid; Vibrating tube method
± gives the expanded uncertainty stated by the source.
Entry format: amount then unit.

For orientation, consider the following solved cases.
CCCCO
806 ± 0.53 kg/m3
CO
786.9 ± 0.52 kg/m3
CCCCCO
811.93 ± 0.64 kg/m3
CCO
785.54 ± 0.52 kg/m3
C=C(C)C(=O)OCCN(C)C [2-(dimethylamino)ethyl methylpropenoate]
926.88 ± 0.55 kg/m3

Pending compound:
Query: mass density; subject: "CCCO" 799.83 ± 0.53 kg/m3

* * *

details: 303.15 K; 20000 kPa; Liquid; Vibrating tube method
parameter_measured: mass density (kg/m3)
Express it in kg/m3; write the number only.

For orientation, consider the following solved cases.
CO
800.14
CCO
797.7
CCCCO
816.52
CCCO
810.95
C=C(C)C(=O)OCCN(C)C [2-(dimethylamino)ethyl methylpropenoate]
937.79

Pending molecule:
Query: mass density; subject: "CCCCCO" 821.92

* * *

Recorded measurements of mass density, one per entry
conditions: 293.15 K; 25000 kPa; Liquid; Vibrating tube method
Express it in kg/m3; write the number only.

For orientation, consider the following solved cases.
C=C(C)C(=O)OCCN(C)C [2-(dimethylamino)ethyl methylpropenoate]
950.3
CCCCO
826
CCO
808.74
CO
812.52
CCCO
821.05

Pending compound:
Query: mass density; subject: "CCCCCO" 831.36

* * *

conditions: 303.15 K; 10000 kPa; Liquid; Vibrating tube method
parameter_measured: mass density (kg/m3)
Express it in kg/m3; write the number only.

For orientation, consider the following solved cases.
CCCCO [butan-1-ol]
809.77
CCCCCO [pentan-1-ol]
815.5
CCCO [propan-1-ol]
803.8

Query: mass density; subject: CCO [ethanol] 789.89

Query: mass density; subject: C=C(C)C(=O)OCCN(C)C [2-(dimethylamino)ethyl methylpropenoate] 930.61

Query: mass density; subject: CO [methanol] 791.61

Provenance of the data: the NIST ThermoML archive (doi:10.1021/acs.jced.8b00975)
